HR (heart rate) change for assorted compounds
System: dogs
assay: Intravenous cardiovascular evaluation in dogs
experimental_setup: i.v. dogs, estimated at HBD
assay_readout: HR (heart rate) change

>>> recorded_measurement("CCCn1c(=O)c2c(ncn2CC(O)CO)n(CCC)c1=O (stereo not shown)")
"+7 ΔBPM"
>>> recorded_measurement("CCCn1c(=O)c2c(ncn2CCCO)n(CCC)c1=O")
"+80 ΔBPM"
>>> recorded_measurement("Cn1c(=O)c2c(ncn2CC(O)CO)n(C)c1=O (stereo not shown)")
"+11 ΔBPM"
>>> recorded_measurement("CCCn1c(=O)c2c(ncn2CC(C)O)n(CCC)c1=O (stereo not shown)")
"+21 ΔBPM"

====

Test system: dogs
assay: Intravenous emetic study in dogs (ED50)
Assay type: in vivo, dog
experimental_setup: estimated at HBD
assay_readout: Emetic effect, I.V. Dogs

>>> recorded_measurement("Cn1c(=O)c2[nH]cnc2n(C)c1=O")
"None"
>>> recorded_measurement("CCCn1c(=O)c2c(ncn2CC(O)CO)n(CCC)c1=O (centres unmarked)")
"None"
>>> recorded_measurement("Cn1c(=O)c2c(ncn2CC(O)CO)n(C)c1=O (centres unmarked)")
"None"

====

System: dogs
assay: Intravenous cardiovascular evaluation in dogs
experimental_setup: i.v. dogs, estimated at HBD
assay_readout: MAP (mean arterial pressure) change

>>> recorded_measurement("CCCn1c(=O)c2c(ncn2CC(C)O)n(CCC)c1=O (stereo not shown)")
"-8 ΔmmHg"
>>> recorded_measurement("Cn1c(=O)c2c(ncn2CC(O)CO)n(C)c1=O (stereo not shown)")
"-20 ΔmmHg"
>>> recorded_measurement("CCCn1c(=O)c2c(ncn2CCCO)n(CCC)c1=O")
"-25 ΔmmHg"
>>> recorded_measurement("CCCn1c(=O)c2c(ncn2CC(O)CO)n(CCC)c1=O (stereo not shown)")
"-5 ΔmmHg"

====

System: dogs
assay: Intravenous cardiovascular evaluation in dogs
experimental_setup: i.v. dogs, estimated at HBD
assay_readout: MCF (myocardial contractile force) change

>>> recorded_measurement("CCCn1c(=O)c2c(ncn2CC(C)O)n(CCC)c1=O (stereo not shown)")
"+28 %Δ"
>>> recorded_measurement("CCCn1c(=O)c2c(ncn2CC(O)CO)n(CCC)c1=O (stereo not shown)")
"+15 %Δ"
>>> recorded_measurement("Cn1c(=O)c2c(ncn2CC(O)CO)n(C)c1=O (stereo not shown)")
"-5 %Δ"
>>> recorded_measurement("CCCn1c(=O)c2c(ncn2CCCO)n(CCC)c1=O")
"+20 %Δ"

====

System: dogs
assay: Oral minimum emetic dose in dogs
Type: in vivo, dog
experimental_setup: relative to theophylline, molar basis
assay_readout: Oral Emetic (Dogs), relative molar activity

>>> recorded_measurement("CCCn1c(=O)c2c(ncn2CC(O)CO)n(CCC)c1=O (stereo not shown) [Compound V]")
0.50
>>> recorded_measurement("CCCn1c(=O)c2c(ncn2CCCO)n(CCC)c1=O [IV]")
6.00
>>> recorded_measurement("CCCn1c(=O)c2c(ncn2CC(C)O)n(CCC)c1=O (stereo not shown) [III]")
251.00

====

assay: Oral LD50 / oral PD50 ratio in guinea pigs
experimental_setup: guinea pig, in vivo, median lethal dose / median protective dose, relative to theophylline, read-out: Oral LD50 / Oral PD50 (G. Pig), relative
selectivity ratio for assorted molecules
assay_readout: selectivity ratio

>>> recorded_measurement("Cn1c(=O)c2c(ncn2CC(O)CO)n(C)c1=O (stereo not shown)")
2
>>> recorded_measurement("CCCn1c(=O)c2c(ncn2CCCO)n(CCC)c1=O")
3.57
>>> recorded_measurement("CCCn1c(=O)c2c(ncn2CC(O)CO)n(CCC)c1=O (stereo not shown)")
3.75
>>> recorded_measurement("CCCn1c(=O)c2c(ncn2CC(C)O)n(CCC)c1=O (stereo not shown)")
5.43
